The reported measurements were obtained from paper PMC10726135.

Target: HNF4alpha8 (COS-7 nuclear extract) (Homo sapiens, UniProt P41235-5 1-452)
Sequence: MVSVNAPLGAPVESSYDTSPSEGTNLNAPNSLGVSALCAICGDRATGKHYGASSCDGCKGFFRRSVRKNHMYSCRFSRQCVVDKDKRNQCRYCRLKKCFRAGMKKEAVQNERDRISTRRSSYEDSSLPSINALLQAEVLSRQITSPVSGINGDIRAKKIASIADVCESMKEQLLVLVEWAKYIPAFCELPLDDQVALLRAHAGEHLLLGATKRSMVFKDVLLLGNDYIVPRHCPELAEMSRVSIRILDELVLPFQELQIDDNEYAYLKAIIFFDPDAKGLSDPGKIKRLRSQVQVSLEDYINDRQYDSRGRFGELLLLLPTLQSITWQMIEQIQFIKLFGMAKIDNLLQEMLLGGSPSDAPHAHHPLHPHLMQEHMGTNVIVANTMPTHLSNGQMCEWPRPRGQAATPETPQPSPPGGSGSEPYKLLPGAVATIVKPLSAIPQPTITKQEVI
Experiment: protein-binding microarray; COS-7 nuclear extract on double-stranded Agilent 4x180k PBM; binding buffer, salt, pH and temperature not given in the material; high values mean tight binding
Conditions: chain copies: 2; label: 3' end of strand 1 on the slide; dsDNA, one strand shown
In all, about 18,000 sequences were measured (“log2 normalized intensity”: median about 0.36, highest 2% from about 7.3 on). Many of the other results were omitted from the sample, so the highest values are more common in it than they were.
Documented binding signal across a set of sequences
Phrase the answer as number then unit, nothing more needed.

Sample answers from the record:
{"Sequence code": "ATGCCCCATGGTAAGAACTACAGTTGACCTGCCTAGGGAGATTAGAGTATCGGTCGA", "Parameter": "binding signal", "Reading": "4.71 log2 normalized intensity"}
{"Sequence code": "TTACTGGACTTGATCCATTCTACCCCTGTGGCCTAGGGAGATTAGAGTATCGGTCGA", "Parameter": "binding signal", "Reading": "2.82 log2 normalized intensity"}
{"Sequence code": "GACCTTTGAACACCACAAGTTTGAACTGCAGCCTAGGGAGATTAGAGTATCGGTCGA", "Parameter": "binding signal", "Reading": "5.65 log2 normalized intensity"}
{"Sequence code": "CAGTTGACCTTTGAACACCACAAGTTTGAAGCCTAGGGAGATTAGAGTATCGGTCGA", "Parameter": "binding signal", "Reading": "6.74 log2 normalized intensity"}

Now consider a different sequence.
IN: What binding signal value was documented for this sequence, `GTTGACCTTTAGTCTCTAGCCCCGCCCAGAGCCTAGGGAGATTAGAGTATCGGTCGA` ?
OUT: 5.33 log2 normalized intensity
